All values here come from patent US12139492B2.

SYSTEM UNDER TEST: BTK (Homo sapiens)
Sequence (Q06187 whole entry): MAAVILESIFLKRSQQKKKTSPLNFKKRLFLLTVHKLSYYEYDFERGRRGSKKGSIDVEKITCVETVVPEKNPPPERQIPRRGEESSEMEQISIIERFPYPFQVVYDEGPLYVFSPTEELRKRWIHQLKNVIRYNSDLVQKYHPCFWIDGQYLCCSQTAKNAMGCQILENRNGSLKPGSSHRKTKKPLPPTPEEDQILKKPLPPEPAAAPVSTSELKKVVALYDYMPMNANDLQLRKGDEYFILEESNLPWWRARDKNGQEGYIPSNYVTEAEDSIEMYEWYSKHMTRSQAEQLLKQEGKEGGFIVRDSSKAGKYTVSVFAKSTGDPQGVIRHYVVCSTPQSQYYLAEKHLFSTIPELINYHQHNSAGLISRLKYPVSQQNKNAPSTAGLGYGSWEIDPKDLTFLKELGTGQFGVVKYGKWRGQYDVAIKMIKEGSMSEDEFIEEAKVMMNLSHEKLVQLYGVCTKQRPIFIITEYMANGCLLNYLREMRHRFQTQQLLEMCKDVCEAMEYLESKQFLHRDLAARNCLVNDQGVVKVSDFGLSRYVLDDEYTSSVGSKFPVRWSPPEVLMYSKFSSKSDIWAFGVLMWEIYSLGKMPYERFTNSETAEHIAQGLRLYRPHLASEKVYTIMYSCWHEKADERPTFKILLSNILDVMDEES
MEASUREMENT DESCRIPTION: BTK degradation, DC50 and Dmax of Table 1 (cell line not given)
Assay type: cell-based
Parameters: endogenous in cells
PROPERTY NAME: Dmax

COMPOUND	SYSTEM UNDER TEST	Dmax
Nc1ncnc2c1c(-c1ccc(Oc3ccccc3)cc1)nn2[C@@H]1CCCN(CC2CCN(C(=O)N3CCN(c4ccc5c(c4)CN(C4CCC(=O)NC4=O)C5=O)CC3)CC2)C1 (stereo partly shown)	BTK (Homo sapiens)	> 75%
Nc1ncnc2c1c(-c1ccc(Oc3ccccc3)cc1)nn2C1CCCN(CCOCCN2CCN(c3ccc4c(c3)C(=O)N(C3CCC(=O)NC3=O)C4=O)CC2)C1 (stereo not shown)	BTK (Homo sapiens)	> 75%
Nc1ncnc2c1c(-c1ccc(Oc3ccccc3)cc1)nn2[C@@H]1CCCN(C2CCN(CC3CCN(c4ccc5c(c4)CN(C4CCC(=O)NC4=O)C5=O)CC3)CC2)C1 (stereo partly shown)	BTK (Homo sapiens)	> 90%

Look up Dmax for the entries below, preserving their order.
1. Nc1ncnc2c1c(-c1ccc(Oc3ccccc3)cc1)nn2C1CCN(C(=O)N2CCN(c3ccc4c(c3)C(=O)N(C3CCC(=O)NC3=O)C4=O)CC2)CC1 (stereo not shown)
2. Nc1ncnc2c1c(-c1ccc(Oc3ccccc3)cc1)nn2C1CCN(C(=O)N2CCC(N3CCN(c4ccc5c(c4)C(=O)N(C4CCC(=O)NC4=O)C5=O)CC3)CC2)CC1 (stereo not shown)
3. Nc1ncnc2c1c(-c1ccc(Oc3ccccc3)cc1)nn2[C@@H]1CCCN(C(=O)N2CCC(N3CCC(c4ccc5c(c4)CN(C4CCC(=O)NC4=O)C5=O)CC3)CC2)C1 (stereo partly shown)

Result:
1. > 50%
2. > 75%
3. > 90%

Q: Value wanted: Dmax (BTK (Homo sapiens)) of entry Nc1ncnc2c1c(-c1ccc(Oc3ccccc3)cc1)nn2C1CCN(CC2CCN(C(=O)N3CCC(CCN4CCN(c5ccc6c(c5)CN(C5CCC(=O)NC5=O)C6=O)CC4)CC3)CC2)CC1 (stereo not shown)
Result: > 90%

----------
SYSTEM UNDER TEST: BTK (Homo sapiens)
MEASUREMENT DESCRIPTION: Degradation of BTK protein in Namalwa cells (Western blot; DC50, Dmax)
SETUP CONDITIONS: read-out: DC50 (BTK degradation); concentration giving 50% reduction of BTK expression level; cell line not given
PROPERTY NAME: DC50

Sample answers from the record:
COMPOUND	DC50
Nc1ncnc2c1c(-c1ccc(Oc3ccccc3)cc1)nn2C1CCN(C(=O)N2CC(N3CCN(c4ccc5c(c4)C(=O)N([C@H]4CCC(=O)NC4=O)C5=O)CC3)C2)CC1	< 10 nM
NC(=O)c1c(-c2ccc(Oc3ccccc3)cc2)nn2c1NCC[C@H]2C1CCN(C2CCN(C(=O)N3CCC(CN4CCC(c5ccc6c(c5)CN(C5CCC(=O)NC5=O)C6=O)CC4)CC3)CC2)CC1 (some centres unmarked)	10 to 50 nM
NC(=O)c1c(-c2ccc(Oc3ccccc3)cc2)nn2c1NCC[C@H]2C1CCN(CC2CCN(C(=O)N3CCC(N4CCN(c5ccc6c(c5)C(=O)N(C5CCC(=O)NC5=O)C6=O)CC4)CC3)CC2)CC1 (some centres unmarked)	10 to 50 nM
Nc1ncnc2c1c(-c1ccc(Oc3ccccc3)cc1)nn2C1CCN(CC2CC(N3CCN(c4ccc5c(c4)C(=O)N(C4CCC(=O)NC4=O)C5=O)CC3)C2)CC1 (centres unmarked)	< 10 nM

Now examine the next entry.
Q: Form: Entry = Nc1ncnc2c1c(-c1ccc(Oc3ccccc3)cc1)nn2C1CCC(CN2CC(N3CCN(c4ccc5c(c4)CN(C4CCC(=O)NC4=O)C5=O)CC3)C2)CC1 (centres unmarked) | System = BTK (Homo sapiens) | DC50 = ____
Result: < 10 nM
